Cited source for all entries: ChEMBL document CHEMBL3769306

- Assay System: Adenosine receptor A2a (Homo sapiens)
- Sequence (P29274 whole entry): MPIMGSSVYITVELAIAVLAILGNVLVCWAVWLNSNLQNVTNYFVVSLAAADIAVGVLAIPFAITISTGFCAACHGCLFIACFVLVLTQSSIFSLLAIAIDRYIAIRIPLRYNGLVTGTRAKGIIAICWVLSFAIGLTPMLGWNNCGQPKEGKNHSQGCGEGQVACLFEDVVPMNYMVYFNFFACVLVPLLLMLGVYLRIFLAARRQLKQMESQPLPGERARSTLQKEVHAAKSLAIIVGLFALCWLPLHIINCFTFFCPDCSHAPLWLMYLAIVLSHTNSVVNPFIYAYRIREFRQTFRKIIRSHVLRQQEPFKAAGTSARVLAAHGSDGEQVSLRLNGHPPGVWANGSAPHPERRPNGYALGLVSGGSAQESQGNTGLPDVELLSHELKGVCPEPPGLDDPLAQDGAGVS
- Assay Info: Displacement of 2-[2-(4-amino-3-[125I]iodophenyl)ethylamino]adenosine from human recombinant adenosine A2A receptor expressed in HEK293 cells
Metric Name: Kd (nM)

>  <Smiles Text>
COC(=O)N1CCC(CC#Cc2nc(N)c3ncn([C@@H]4O[C@H](C(=O)NC5CC5)[C@@H](O)[C@H]4O)c3n2)CC1

>  <Metric Name>
Kd

>  <Val>
0.7

$$$$

----------
- Assay System: Rho-associated protein kinase 2 (Homo sapiens, UniProt O75116)
- Sequence (O75116 whole entry): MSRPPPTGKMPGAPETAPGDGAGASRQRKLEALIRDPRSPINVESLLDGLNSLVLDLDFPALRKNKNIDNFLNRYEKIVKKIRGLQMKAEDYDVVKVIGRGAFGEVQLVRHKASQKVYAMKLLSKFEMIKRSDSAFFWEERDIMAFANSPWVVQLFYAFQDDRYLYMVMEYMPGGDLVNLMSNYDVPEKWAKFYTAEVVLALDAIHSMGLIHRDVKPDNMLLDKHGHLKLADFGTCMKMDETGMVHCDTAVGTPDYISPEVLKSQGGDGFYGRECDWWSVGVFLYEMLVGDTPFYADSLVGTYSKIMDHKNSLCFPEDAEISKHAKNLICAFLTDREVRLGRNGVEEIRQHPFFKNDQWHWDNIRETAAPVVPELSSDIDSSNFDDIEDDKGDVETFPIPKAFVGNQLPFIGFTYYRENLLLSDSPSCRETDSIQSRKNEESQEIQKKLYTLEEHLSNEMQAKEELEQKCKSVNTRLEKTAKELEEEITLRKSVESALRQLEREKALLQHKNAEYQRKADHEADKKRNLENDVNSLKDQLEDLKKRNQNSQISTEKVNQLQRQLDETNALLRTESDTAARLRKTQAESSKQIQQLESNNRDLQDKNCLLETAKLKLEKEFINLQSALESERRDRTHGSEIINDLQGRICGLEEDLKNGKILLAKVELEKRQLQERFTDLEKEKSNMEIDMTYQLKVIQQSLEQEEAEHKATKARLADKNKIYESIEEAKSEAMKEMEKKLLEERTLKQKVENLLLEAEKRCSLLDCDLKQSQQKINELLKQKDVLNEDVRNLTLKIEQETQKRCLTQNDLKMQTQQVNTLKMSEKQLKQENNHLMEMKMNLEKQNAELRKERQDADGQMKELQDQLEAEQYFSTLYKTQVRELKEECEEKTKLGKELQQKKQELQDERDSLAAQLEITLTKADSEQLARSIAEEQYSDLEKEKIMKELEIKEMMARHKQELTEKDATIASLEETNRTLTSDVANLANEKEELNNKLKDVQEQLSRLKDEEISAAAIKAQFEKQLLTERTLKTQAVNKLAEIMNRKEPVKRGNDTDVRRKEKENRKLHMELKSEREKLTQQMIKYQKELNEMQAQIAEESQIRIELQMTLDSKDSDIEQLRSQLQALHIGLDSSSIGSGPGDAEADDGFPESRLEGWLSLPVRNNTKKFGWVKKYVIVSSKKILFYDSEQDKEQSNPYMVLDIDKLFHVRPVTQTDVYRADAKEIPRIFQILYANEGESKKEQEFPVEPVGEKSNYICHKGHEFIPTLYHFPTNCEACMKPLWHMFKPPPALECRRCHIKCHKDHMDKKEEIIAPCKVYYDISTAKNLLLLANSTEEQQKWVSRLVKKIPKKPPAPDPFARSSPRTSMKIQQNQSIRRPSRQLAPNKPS
- Assay Info: Inhibition of ROCK2 (unknown origin) using STK2 as substrate after 1 hr
pIC50: −log10 of the molar value.
Metric Name: pIC50

>  <Compound>
CN(C)CCOc1cc(-c2cn[nH]c2)ccc1NC(=O)C1COc2ccccc2O1 (stereo unspecified) [SR-3677]

>  <Val>
8.52

$$$$
